Test system: Mycobacterium tuberculosis standard strain H37Rv
measurement-description: Microplate Alamar Blue Assay (MABA), minimum inhibitory concentration
Type: cell-based
reported-conditions: Mycobacterium tuberculosis, H37RV
Counter-ions that a name gives are not always drawn.
Listed here: items and their measured MIC.
Numeric only. Scale: µg/mL

>  <molecule>
CC(C)=CCC/C(C)=C/CNCCNC(c1ccccn1)c1ccccn1

>  <readout-unit>
µg/mL

>  <MIC>
4

$$$$

Memo: CCCCCCCCNCCNC1C2CC3CC(C2)CC1C3 (centres unmarked) [XHJ-5-3, dihydrochloride] , reported MIC: 0.986

The reported MIC of the molecule CC(C)=CCC/C(C)=C/CNCCNC(c1ccccc1)c1cccnc1 (centres unmarked) was 16

Sample CC(C)=CCC/C(C)=C/CN(CCNC1C2CC3CC(C2)CC1C3)S(=O)(=O)c1ccc(C)cc1.Cl (centres unmarked) ; MIC observed: 3.76
